A collection of compounds and their measured inhibition at 1 µM
Molecular target: human μ opiate receptor (Homo sapiens)
Construct: purchased PerkinElmer Life Sciences, Zaventem, Belgium RB-HOM; host or cells: CHO-K1 cells (membrane preparation)
Sequence (P35372 whole entry): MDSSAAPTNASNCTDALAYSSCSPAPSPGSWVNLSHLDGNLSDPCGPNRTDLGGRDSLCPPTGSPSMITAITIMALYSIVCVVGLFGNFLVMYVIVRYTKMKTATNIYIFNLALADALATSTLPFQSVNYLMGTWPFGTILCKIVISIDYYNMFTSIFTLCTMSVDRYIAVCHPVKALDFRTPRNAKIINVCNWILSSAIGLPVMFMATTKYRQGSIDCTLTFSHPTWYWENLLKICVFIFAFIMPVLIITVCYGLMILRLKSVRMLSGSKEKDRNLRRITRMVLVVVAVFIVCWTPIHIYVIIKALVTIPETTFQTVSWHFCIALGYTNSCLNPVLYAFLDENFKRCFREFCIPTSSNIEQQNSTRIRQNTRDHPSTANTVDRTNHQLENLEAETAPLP
Experiment: Affinity for the human μ opiate receptor ([3H]-naloxone displacement, CHO-K1 receptor membrane preparation, SPA)
Format: binding
Settings: 1.5 h, Table 2; test concentration 1 μM; read-out: μ receptor
The response must be a number in % with no trailing unit.

A selection of reference data follows.
# compound, number
records = [
    ("CN(C)C(c1ccccc1)C1CCC(NC(=O)COCCN(C)S(=O)(=O)c2c(Cl)cc(Cl)cc2Cl)C1 (stereo not shown)", 89),
    ("COc1cc(C)c(S(=O)(=O)N(C)CCOCC(=O)NCC2CCC(C(c3ccccc3)N(C)C)CC2)c(C)c1C (stereo not shown)", 93),
    ("CN(CCOCC(=O)NC1CCC(C(c2ccccc2)N2CCCCC2)CC1)S(=O)(=O)c1c(Cl)cc(Cl)cc1Cl (stereo not shown)", 45),
    ("O=C(COCCN(C1CC1)S(=O)(=O)c1c(Cl)cc(Cl)cc1Cl)NC1CCC(C(c2ccccc2)N2CCCCC2)CC1 (stereo not shown)", 55),
    ("CN(C)C(Cc1ccccc1)C1CCC(NC(=O)COCCN(C)S(=O)(=O)c2c(Cl)cc(Cl)cc2Cl)CC1 (stereo not shown)", 64),
]

Incoming: Input CN(C)C(c1ccccc1)C1CCC(CNC(=O)COCC2CCCN2S(=O)(=O)c2c(Cl)cc(Cl)cc2Cl)CC1 (stereo not shown) , output reported inhibition at 1 µM.
Outgoing: 96

Incoming: Input COc1cc(C)c(S(=O)(=O)N(C)CCOCC(=O)NC2CCC(C(c3ccccc3)N3CCCCC3)CC2)c(C)c1C (stereo not shown) , output reported inhibition at 1 µM.
Outgoing: 29

Incoming: Input CN(C)C(c1ccccc1)C1CCC(NC(=O)COCC2CCCN2S(=O)(=O)c2c(Cl)cc(Cl)cc2Cl)CC1 (stereo not shown) , output reported inhibition at 1 µM.
Outgoing: 93

Incoming: Input CN(C)C(c1ccccc1)C1CCC(CNC(=O)CCOCN(C)S(=O)(=O)c2c(Cl)cc(Cl)cc2Cl)CC1 (stereo not shown) , output reported inhibition at 1 µM.
Outgoing: 98

Incoming: Input CN(C)C(c1ccccc1)C1CCC(CNC(=O)COCCN(C)S(=O)(=O)c2c(Cl)cc(Cl)cc2Cl)CC1 (stereo not shown) , output reported inhibition at 1 µM.
Outgoing: 96

Incoming: Input CN(C)C(c1ccccc1)C1CCC(NC(=O)COC2CCCN(S(=O)(=O)c3c(Cl)cc(Cl)cc3Cl)C2)CC1 (stereo not shown) , output reported inhibition at 1 µM.
Outgoing: 89

Incoming: Input COc1cc(C)c(S(=O)(=O)N(C)CCOCC(=O)NC2CCC(C(c3ccccc3)N3CCCC3)CC2)c(C)c1C (stereo not shown) , output reported inhibition at 1 µM.
Outgoing: 43

Incoming: Input CN(C)C(c1ccccc1)C1CCC(NC(=O)COCCN(C2CC2)S(=O)(=O)c2c(Cl)cc(Cl)cc2Cl)CC1 (stereo not shown) , output reported inhibition at 1 µM.
Outgoing: 95

Incoming: Input COc1cc(C)c(S(=O)(=O)N(C)CCOCC(=O)NC2CCC(C(c3ccccc3)N(C)C)CC2)c(C)c1C (stereo not shown) , output reported inhibition at 1 µM.
Outgoing: 87

###

Target: bradykinin 1 receptor (B1R) of the rat (Rattus norvegicus)
Construct: expressed in transfected cells; host or cells: CHO K1 cells
Sequence (P97583 1-337): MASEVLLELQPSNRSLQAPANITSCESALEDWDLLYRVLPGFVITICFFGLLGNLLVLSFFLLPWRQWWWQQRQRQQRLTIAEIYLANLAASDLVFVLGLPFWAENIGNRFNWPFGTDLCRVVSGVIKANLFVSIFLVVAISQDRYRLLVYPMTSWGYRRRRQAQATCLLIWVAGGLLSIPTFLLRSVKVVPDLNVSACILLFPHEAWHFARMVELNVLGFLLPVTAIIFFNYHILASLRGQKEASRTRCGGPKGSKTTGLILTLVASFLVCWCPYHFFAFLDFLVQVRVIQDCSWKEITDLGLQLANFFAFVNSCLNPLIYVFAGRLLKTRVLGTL
Test: Functional investigation on the rat bradykinin 1 receptor (B1R), Ca2+ FLIPR assay in CHO K1 rB1R cells
Assay type: cell-based
Conditions: B1R antagonism rat; test substance 10 μM; Ca2+ FLIPR, CHO K1 rB1R cells
measured parameter: B1R Ant. r [10 μM] % Inhibition (%)
The response must be a number in % with no trailing unit.

A selection of reference data follows.
# molecule, subject of test, B1R Ant. r [10 μM] % Inhibition [%]
records = [
    ("Cc1cc(C)c(S(=O)(=O)N2CCC(OCC(=O)NCC3CCC(C(c4ccc(F)cc4)N(C)C)CC3)C2)c(C)c1 (centres unmarked)", "bradykinin 1 receptor (B1R) of the rat (Rattus norvegicus)", 45),
    ("CN(C)C(c1cccc(F)c1)C1CCC(NC(=O)COC2CCCN(S(=O)(=O)c3ccccc3)C2)CC1 (centres unmarked)", "bradykinin 1 receptor (B1R) of the rat (Rattus norvegicus)", 4),
    ("Cc1ccc(S(=O)(=O)N(C)CCOCC(=O)NC2CCC(C(c3cccs3)N(C)C)CC2)cc1 (centres unmarked)", "bradykinin 1 receptor (B1R) of the rat (Rattus norvegicus)", 16),
    ("CN(C)C(c1ccc(F)cc1)C1CCC(CNC(=O)COCCN(C)S(=O)(=O)c2ccc(OC(F)(F)F)cc2)CC1 (centres unmarked)", "bradykinin 1 receptor (B1R) of the rat (Rattus norvegicus)", 16),
]

Incoming: Lab note: bradykinin 1 receptor (B1R) of the rat (Rattus norvegicus) assay, enter B1R Ant. r [10 μM] % Inhibition for COc1cc(C)c(S(=O)(=O)N2CCC(CCOCC(=O)NCC3CCC(C(c4ccc(Cl)cc4)N(C)C)CC3)CC2)c(C)c1C (centres unmarked) here
Outgoing: −10

Incoming: Lab note: bradykinin 1 receptor (B1R) of the rat (Rattus norvegicus) assay, enter B1R Ant. r [10 μM] % Inhibition for COc1cc(C)c(S(=O)(=O)N(CCOCC(=O)NCC2CCC(C(c3cccc(F)c3)N(C)C)CC2)Cc2ccccc2)c(C)c1 (centres unmarked) here
Outgoing: 16

Incoming: Lab note: bradykinin 1 receptor (B1R) of the rat (Rattus norvegicus) assay, enter B1R Ant. r [10 μM] % Inhibition for CN(C)C(c1cccs1)C1CCC(CNC(=O)COC2CCN(S(=O)(=O)c3ccccc3)CC2)CC1 (centres unmarked) here
Outgoing: 14

Incoming: Lab note: bradykinin 1 receptor (B1R) of the rat (Rattus norvegicus) assay, enter B1R Ant. r [10 μM] % Inhibition for COc1cc(C)c(S(=O)(=O)N(CCOCC(=O)NC2CCC(C(c3cccc(F)c3)N(C)C)CC2)Cc2ccccc2)c(C)c1 (centres unmarked) here
Outgoing: 22

Incoming: Lab note: bradykinin 1 receptor (B1R) of the rat (Rattus norvegicus) assay, enter B1R Ant. r [10 μM] % Inhibition for CN(C)C(c1ccc(Cl)cc1)C1CCC(CCNC(=O)COCC2CCCN(S(=O)(=O)c3ccccc3)C2)CC1 (centres unmarked) here
Outgoing: 30

Incoming: Lab note: bradykinin 1 receptor (B1R) of the rat (Rattus norvegicus) assay, enter B1R Ant. r [10 μM] % Inhibition for COc1cc(C)c(S(=O)(=O)N(CCOCC(=O)NCCC2CCC(C(c3ccc(Cl)cc3)N(C)C)CC2)Cc2ccccc2)c(C)c1 (centres unmarked) here
Outgoing: 9

Incoming: Lab note: bradykinin 1 receptor (B1R) of the rat (Rattus norvegicus) assay, enter B1R Ant. r [10 μM] % Inhibition for COc1cc(C)c(S(=O)(=O)N2CCC(OCC(=O)NCC3CCC(C(c4ccc(F)cc4)N(C)C)CC3)CC2)c(C)c1C (centres unmarked) here
Outgoing: 68

Incoming: Lab note: bradykinin 1 receptor (B1R) of the rat (Rattus norvegicus) assay, enter B1R Ant. r [10 μM] % Inhibition for CN(C)C(c1cccc(F)c1)C1CCC(NC(=O)COCCN(C)S(=O)(=O)c2ccc(OC(F)(F)F)cc2)CC1 (centres unmarked) here
Outgoing: 15

Incoming: Lab note: bradykinin 1 receptor (B1R) of the rat (Rattus norvegicus) assay, enter B1R Ant. r [10 μM] % Inhibition for COc1ccc(S(=O)(=O)N(C)CCOCC(=O)NC2CCC(C(c3ccc(F)cc3)N(C)C)CC2)cc1 (centres unmarked) here
Outgoing: 40

Incoming: Lab note: bradykinin 1 receptor (B1R) of the rat (Rattus norvegicus) assay, enter B1R Ant. r [10 μM] % Inhibition for COc1cc(C)c(S(=O)(=O)N(C)CCOCC(=O)NC2CCC(C(c3ccc(F)cc3)N(C)C)CC2)c(C)c1 (centres unmarked) here
Outgoing: 104

###

Molecular target: serotonin (5-HT) reuptake (Rattus norvegicus)
Construct: synaptosomes are freshly isolated from areas of the rat brain; from tissue; host or cells: rat brain synaptosomes (P2 fraction)
Sequence (P31652 whole entry): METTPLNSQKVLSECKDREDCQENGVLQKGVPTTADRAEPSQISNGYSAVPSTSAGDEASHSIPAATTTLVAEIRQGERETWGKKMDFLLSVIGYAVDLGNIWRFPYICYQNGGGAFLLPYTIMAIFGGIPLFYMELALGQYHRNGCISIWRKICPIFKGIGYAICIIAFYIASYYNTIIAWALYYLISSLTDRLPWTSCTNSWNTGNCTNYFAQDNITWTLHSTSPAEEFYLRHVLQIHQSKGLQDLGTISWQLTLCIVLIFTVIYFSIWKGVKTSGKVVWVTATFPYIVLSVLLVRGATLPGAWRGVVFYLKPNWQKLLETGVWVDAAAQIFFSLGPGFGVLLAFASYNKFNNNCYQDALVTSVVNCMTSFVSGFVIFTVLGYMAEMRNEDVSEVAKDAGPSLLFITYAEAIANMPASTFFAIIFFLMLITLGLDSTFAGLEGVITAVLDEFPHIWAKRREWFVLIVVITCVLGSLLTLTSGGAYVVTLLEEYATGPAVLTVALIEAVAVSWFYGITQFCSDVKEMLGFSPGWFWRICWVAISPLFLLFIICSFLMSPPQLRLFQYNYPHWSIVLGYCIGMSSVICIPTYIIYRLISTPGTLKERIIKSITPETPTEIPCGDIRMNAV
Assay: Inhibition of serotonin (5HT) reuptake in synaptosomes from rat brain
Format: biochemical
Conditions: test concentration of 10 μM
A collection of molecules and their measured 5-HT (inhibition of reuptake of serotonin, % inhibition)
The response must be a number in % with no trailing unit.

A selection of reference data follows.
# molecule, subject of test, number
records = [
    ("CN(C)C(c1ccc(F)cc1)C1CCC(CCNC(=O)COCCN(C)S(=O)(=O)c2cccc(C(F)(F)F)c2)CC1 (centres unmarked)", "serotonin (5-HT) reuptake (Rattus norvegicus)", 95),
    ("CN(C)C(CCc1ccccc1)C1CCC(CNC(=O)COCCN(C)S(=O)(=O)c2cccc(C(F)(F)F)c2)CC1 (centres unmarked)", "serotonin (5-HT) reuptake (Rattus norvegicus)", 86),
    ("CN(C)C(c1ccc(F)cc1)C1CCC(CNC(=O)COCC2CCCN2S(=O)(=O)c2ccc(Cl)c(Cl)c2)CC1 (centres unmarked)", "serotonin (5-HT) reuptake (Rattus norvegicus)", 94),
    ("CN(C)C(c1cccc(F)c1)C1CCC(CNC(=O)COC2CCN(S(=O)(=O)c3ccccc3)C2)CC1 (centres unmarked)", "serotonin (5-HT) reuptake (Rattus norvegicus)", 102),
    ("CN(C)C(CCc1ccccc1)C1CCC(CNC(=O)COCC2CCCN(S(=O)(=O)c3ccccc3)C2)CC1 (centres unmarked)", "serotonin (5-HT) reuptake (Rattus norvegicus)", 92),
    ("COc1cc(C)c(S(=O)(=O)N(CCOCC(=O)NCCC2CCC(C(c3ccc(F)cc3)N(C)C)CC2)Cc2ccccc2)c(C)c1C (centres unmarked)", "serotonin (5-HT) reuptake (Rattus norvegicus)", 92),
]

Incoming: Lab note: serotonin (5-HT) reuptake (Rattus norvegicus) assay, enter 5-HT (inhibition of reuptake of serotonin, % inhibition) for CN(C)C(c1cccc(F)c1)C1CCC(NC(=O)COc2ccc(Cl)cc2)CC1 (centres unmarked) here
Outgoing: 59

Incoming: Lab note: serotonin (5-HT) reuptake (Rattus norvegicus) assay, enter 5-HT (inhibition of reuptake of serotonin, % inhibition) for COc1ccc(S(=O)(=O)N2Cc3ccccc3CC2COCC(=O)NCCC2CCC(C(c3ccc(F)cc3)N(C)C)CC2)cc1 (centres unmarked) here
Outgoing: 93

The reported numbers originate from patent US8106055B2.
